biological target: Zea mays bx8 glucosyl transferase (his tagged SEQ ID NO: 2) (Zea mays, UniProt Q8W2B7); construct: His tag (N); made in house; host or cells: E. coli BL21 (DE3), pET24a; assay: UDP-Glo glucosyl transferase assay, purified enzyme; type: biochemical; settings: herbicide 0.500 mM; N-terminally his tagged; limit of detection about 0.001
Can you tell me Activity for the items I'm about to list?
Answers are plain numbers, in pmol/sec/pmol enzyme.

1) CON1C(=O)N(c2cc(C(F)(F)F)ccn2)C(O)[C@@H]1C (stereo partly shown) = 0.000
2) Cc1cnc(N2C(=O)N(C)CC2O)cc1C(F)(F)F (stereo not shown) = 0.001
3) CN1CC(O)N(c2cc(C(F)(F)F)c(Cl)cn2)C1=O (stereo not shown) = 0.001

Input line: Reported Activity for Zea mays bx8 glucosyl transferase (his tagged SEQ ID NO: 2) (Zea mays, UniProt Q8W2B7), given CN1CC(O)N(c2cc(C(F)(F)F)ccn2)C1=O (stereo not shown) ?
Output line: 0.000

* * *

molecular target: Zea mays bx9 glucosyl transferase (C-terminally his tagged SEQ ID NO: 1) (Zea mays); construct: His tag (C); made in house; host or cells: E. coli BL21 (DE3), pET24a; experiment: UDP-Glo glucosyl transferase assay, purified enzyme; type: biochemical; conditions: 0.5 mM UDP-glucose, 25 C, pH 7.5; DMSO reagent blank as control
measure: kcat (s⁻¹)
One number for each entry, in s⁻¹.

Sample answers from the record:
1. Cc1cnc(N2C(=O)N(C)CC2O)cc1C(F)(F)F (stereo not shown) = 0.0040
2. COc1ccc2c(c1)OC(O)C(=O)N2O (stereo not shown) = 20.82

Give me kcat for each of these compounds, listed below.
1. CON1C(=O)N(c2cc(C(F)(F)F)c(Cl)cn2)C(O)C1C (stereo not shown)
2. CN1CC(O)N(c2nnc(C(C)(C)C)s2)C1=O (stereo not shown)

Output line:
[0.0001, 0.036]

* * *

Field: Activity. Provide a value for each of the compounds that follow.
Target: SEQ ID NO 22, mutant of Zea mays bx9 glucosyl transferase (Zea mays, UniProt B4G072, A334K/F21Y/M279F/S117V/T220P)
Construct: His tag (C); made in house
Assay: UDP-Glo glucosyl transferase assay, purified enzyme
Format: biochemical
Conditions: lower block, concentration printed only in upper block: V 0.300, VII 0.210; IV, VIII, XI, XXI, XX, XVIII, XVI, XV, XIV 0.200; others 1.000 mM
Description: Glucosyl transferase activity is assayed via measurement of acceptor substrate-dependent production of UDP from ultrapure UDP-glucose using the Promega UDP-Glo™ method and according to the manufacturer's instructions. Assays are run in 96 well microtiter plates. […]
Answers are plain numbers, in pmol/sec/pmol enzyme.

1) CN1CC(O)N(c2cc(C(C)(C)C)on2)C1=O (centres unmarked) = 0.101
2) C[C@@H]1C(O)N(c2noc(C(C)(C)C)c2C#N)C(=O)[C@@H]1C (some centres unmarked) = 0.073
3) C[C@H]1C(=O)N(c2noc(C(C)(C)C)c2C#N)C(O)[C@@H]1C (some centres unmarked) = 0.067
4) CN1CC(O)N(c2cc(C(F)(F)F)c(Cl)cn2)C1=O (centres unmarked) = 0.548
5) CON1C(=O)N(c2cc(C(F)(F)F)c(C)cn2)C(O)[C@@H]1C (some centres unmarked) = 1.530

For the 3 compounds below, give their Activity values.
1. CC1CC(O)N(c2ncc(C(F)(F)F)s2)C1=O (centres unmarked)
2. C[C@@H]1C(=O)N(c2noc(C(C)(C)C)c2C#N)C(O)[C@H]1C (some centres unmarked)
3. Cc1cnc(N2C(=O)N(C)CC2O)cc1C(F)(F)F (centres unmarked)

Output line:
0.285
0.073
0.933

Give Activity for each listed item.
1. C[C@@H]1C(O)N(c2cc(C(C)(C)C)on2)C(=O)N1C (some centres unmarked)
2. CN1CC(O)N(c2cc(C(F)(F)F)ncn2)C1=O (centres unmarked)
3. CN1CC(O)N(c2cc(C(C)(C)C)c(Cl)nn2)C1=O (centres unmarked)
4. Cc1cnc(N2C(=O)N(C)C(C)C2O)cc1C(F)(F)F (centres unmarked)
5. CN1CC(O)N(c2nnc(C(C)(C)C)s2)C1=O (centres unmarked)
6. C[C@@H]1C(O)N(c2cc(C(C)(C)C)on2)C(=O)[C@@H]1C (some centres unmarked)

Output line:
1: 0.042; 2: 0.458; 3: 0.144; 4: 0.563; 5: 0.071; 6: 0.061
